Tested system: purified recombinant human GAC (GLS1) (Homo sapiens, UniProt O94925)
Sequence (O94925 55-598 isoform O94925-3 limits assumed): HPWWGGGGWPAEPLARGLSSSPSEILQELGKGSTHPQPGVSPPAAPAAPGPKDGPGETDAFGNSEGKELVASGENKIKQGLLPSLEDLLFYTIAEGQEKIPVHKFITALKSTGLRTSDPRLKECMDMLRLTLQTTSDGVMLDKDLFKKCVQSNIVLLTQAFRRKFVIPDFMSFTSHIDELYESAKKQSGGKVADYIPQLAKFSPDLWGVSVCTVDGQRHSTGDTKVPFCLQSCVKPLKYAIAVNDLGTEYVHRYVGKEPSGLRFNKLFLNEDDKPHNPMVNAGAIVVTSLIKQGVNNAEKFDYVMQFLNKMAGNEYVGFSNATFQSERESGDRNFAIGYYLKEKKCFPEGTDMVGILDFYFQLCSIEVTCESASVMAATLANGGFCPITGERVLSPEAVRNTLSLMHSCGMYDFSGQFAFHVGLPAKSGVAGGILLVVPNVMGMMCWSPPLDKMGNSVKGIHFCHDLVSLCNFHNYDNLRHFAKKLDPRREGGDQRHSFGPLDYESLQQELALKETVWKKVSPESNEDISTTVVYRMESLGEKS
Protocol details: GLS1 Enzymatic Activity Assay (dual-coupled enzymatic assay)
pIC50: −log10 of the molar value.
Catalogue of pIC50 values

Consider the following illustrative entries.
CC(C)(O)c1ccnc(CNC(=O)c2cn(CCCCc3cc4cc(-c5ccccc5F)[nH]c4nn3)nn2)c1 :: > 7.00
CC(C)(C)OC(=O)NCc1cccc(CNC(=O)c2cn(CCCCc3cc4cc(C5CC5)[nH]c4nn3)nn2)c1 :: > 7.00
O=C(Nc1nnc(CCCCc2cc3cc(Cc4ccccc4)[nH]c3nn2)s1)[C@H](O)c1ccccc1 :: > 7.00

# get_value(readout= pIC50, system= purified recombinant human GAC (GLS1) (Homo sapiens, UniProt O94925)) for "O=C(NCc1cncc(C(F)(F)F)c1)c1cn(CCCCc2cc3c(-c4ccoc4)c(C4CC4)[nH]c3nn2)nn1"
> 7.00

# get_value(readout= pIC50, system= purified recombinant human GAC (GLS1) (Homo sapiens, UniProt O94925)) for "Cc1ccc(CNC(=O)c2cn(CCCCc3cc4cc(C5CCN(C(=O)OC(C)(C)C)CC5)[nH]c4nn3)nn2)cn1"
> 7.00

# get_value(readout= pIC50, system= purified recombinant human GAC (GLS1) (Homo sapiens, UniProt O94925)) for "COc1ncc(-c2c(C3CC3)[nH]c3nnc(CCCCn4cc(C(=O)NCc5ccc(C)nc5)nn4)cc23)c(OC)n1"
> 7.00

# get_value(readout= pIC50, system= purified recombinant human GAC (GLS1) (Homo sapiens, UniProt O94925)) for Cc1ccc(CNC(=O)c2cn(CC(F)CCc3cc4cc(C5CC5)[nH]c4nn3)nn2)cn1 (stereo not drawn)
> 7.00

# get_value(readout= pIC50, system= purified recombinant human GAC (GLS1) (Homo sapiens, UniProt O94925)) for "Cn1cc(CNC(=O)c2cn(CCCCc3cc4cc(C5CC5)[nH]c4nn3)nn2)cn1"
6.30 to 7.00

# get_value(readout= pIC50, system= purified recombinant human GAC (GLS1) (Homo sapiens, UniProt O94925)) for "O=C(Cc1ccccc1)Nc1ccn(CCCCc2cc3cc(C4CC4)[nH]c3nn2)c(=O)c1"
6.30 to 7.00

# get_value(readout= pIC50, system= purified recombinant human GAC (GLS1) (Homo sapiens, UniProt O94925)) for "NS(=O)(=O)c1cccc(-c2c(C3CC3)[nH]c3nnc(CCCCn4cc(C(=O)NCc5cccc(OC(F)(F)F)c5)nn4)cc23)c1"
> 7.00

# get_value(readout= pIC50, system= purified recombinant human GAC (GLS1) (Homo sapiens, UniProt O94925)) for "CC(C)(C(=O)N1CC(c2cc3cc(CCCCn4cc(C(=O)NCc5cc(OC(F)(F)F)ccc5F)nn4)nnc3[nH]2)C1)C(F)(F)F"
> 7.00

# get_value(readout= pIC50, system= purified recombinant human GAC (GLS1) (Homo sapiens, UniProt O94925)) for "CNC(=O)c1cn(CCCCc2cc3cc(-c4ccccc4F)[nH]c3nn2)nn1"
6.30 to 7.00

---

Catalogue of IC50 values
Tested system: purified recombinant human GAC (GLS1) (Homo sapiens)
Protocol details: GLS1 Enzymatic Activity Assay (dual-coupled enzymatic assay)

Consider the following illustrative entries.
Cc1ccc(CNC(=O)c2cn(CCCCc3cc4c(-c5cccc(C(C)(C)O)c5)c(C5CC5)[nH]c4nn3)nn2)cn1 :: < 100 nM
CC(C)OC(=O)N1CC(c2cc3cc(CCCCn4cc(C(=O)NCc5ccc(C(F)(F)F)cn5)nn4)nnc3[nH]2)C1 :: < 100 nM
Cc1ccc(CNC(=O)c2cn(CCCCc3cc4cc(-c5ccccc5F)[nH]c4nn3)nn2)cn1 :: < 100 nM
O=C(NCc1cccc(C(F)(F)F)n1)c1cn(CCCCc2cc3c(-c4ccc(F)cc4F)c(C4CC4)[nH]c3nn2)nn1 :: < 100 nM

Entry under review: "CC(C)CNC(=O)c1nnc(CCCCc2cc3cc(Cc4ccccc4)[nH]c3nn2)s1" . Reported IC50?
100 to 500 nM

Entry under review: "CCOC(=O)c1cccc(CNC(=O)c2cn(CCCCc3cc4cc(C5CC5)[nH]c4nn3)nn2)n1" . Reported IC50?
< 100 nM

Entry under review: "Cn1nccc1-c1c(C2CC2)[nH]c2nnc(CCCCn3cc(C(=O)NCc4ccccn4)nn3)cc12" . Reported IC50?
< 100 nM

Entry under review: "O=C(NCc1ccccn1)c1cn(CCCCc2cc3c(-c4ccccc4)c[nH]c3nn2)nn1" . Reported IC50?
500 to 5000 nM

Entry under review: "CC(C)(C)OC(=O)N1CC(c2cc3cc(CCCCn4cc(C(=O)NCc5cc(C(F)(F)F)ccn5)nn4)nnc3[nH]2)C1" . Reported IC50?
< 100 nM

Entry under review: "Cc1ccc(CNC(=O)c2cn(CCCCc3cc4c(-c5cccc(OC(F)(F)F)c5)c(C5CC5)[nH]c4nn3)nn2)cn1" . Reported IC50?
< 100 nM

Entry under review: "CC(=O)Nc1ccc(-c2c(C3CC3)[nH]c3nnc(CCCCn4cc(C(=O)NCc5ccc(C)nc5)nn4)cc23)cc1" . Reported IC50?
< 100 nM

Entry under review: Cc1ccc(CNC(=O)c2cn(CCCCc3cc4c(F)c(C5CC5)[nH]c4nn3)nn2)cn1 [Example 90, 2,2,2-trifluoroacetate] . Reported IC50?
< 100 nM
